- experimental.system: the molecule itself
- test.method.notes: SEC; analytical size-exclusion chromatography of the purified RutR proteins; elution as dimer; column and buffer not given
property.measured: stoichiometry N
// no unit string in output, number only

Worked examples follow.
protein | reported
double-acetylated RutR AcK7/11 (natural protein, E. coli, acetyl-lysine at 7 and at 11, RutR of Escherichia coli; rutR gene as in m1 with amber stop codons at K7 and K11 for acetyl-L-lysine; Same rutR construct as m1 apart from the amber codons; constructs are in Supplementary Data 4; also called K7- and K11-double-acetylated RutR; source: E. coli BL21 (DE3), genetic code expansion with an additional plasmid for the optimized MbtRNAopt, purified) MTQGAVKTTGKRSRAVSAKKKAILSAALDTFSQFGFHGTRLEQIAELAGVSKTNLLYYFPSKEALYIAVLRQILDIWLAPLKAFREDFAPLAAIKEYIRLKLEVSRDYPQASRLFCMEMLAGAPLLMDELTGDLKALIDEKSALIAGWVKSGKLAPIDPQHLIFMIWASTQHYADFAPQVEAVTGATLRDEVFFNQTVENVQRIIIEGIRPR | 2
RutR AcK52 (site-specifically K52-acetylated RutR) (natural protein, E. coli, acetyl-lysine at 52, RutR of Escherichia coli; rutR gene as in m1 with an amber stop codon at K52 for acetyl-L-lysine; no electron density for the N-terminal 12 (chain A) or 11 (chain B) residues in the structure; Same rutR construct as m1 apart from the amber codon; constructs are in Supplementary Data 4; also called RutR AcK52•uracil; source: E. coli BL21 (DE3), genetic code expansion (acetyl-L-lysine at an amber …)) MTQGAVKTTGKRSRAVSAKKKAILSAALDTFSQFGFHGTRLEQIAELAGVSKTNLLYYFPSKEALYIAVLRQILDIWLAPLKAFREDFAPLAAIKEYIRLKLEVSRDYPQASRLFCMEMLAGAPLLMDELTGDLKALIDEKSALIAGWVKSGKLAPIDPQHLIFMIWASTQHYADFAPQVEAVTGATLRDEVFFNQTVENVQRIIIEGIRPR | 2

Proceeding to the next protein to report its stoichiometry N.
# stoichiometry N of non-acetylated RutR (pyrimidine utilization repressor) wild type (natural protein, E. coli, UniProt P0ACU2 1-212, looked up, RutR, TetR-family transcriptional regulator of Escherichia coli; called full-length RutR WT; Expressed from a modified pRSFDuet-1 that carries a G to P mutation after the start Met of the tag region; No tag cleavage is described; also called RutR WT; source: E. coli BL21 (DE3), purified (Ni-NTA, SEC)) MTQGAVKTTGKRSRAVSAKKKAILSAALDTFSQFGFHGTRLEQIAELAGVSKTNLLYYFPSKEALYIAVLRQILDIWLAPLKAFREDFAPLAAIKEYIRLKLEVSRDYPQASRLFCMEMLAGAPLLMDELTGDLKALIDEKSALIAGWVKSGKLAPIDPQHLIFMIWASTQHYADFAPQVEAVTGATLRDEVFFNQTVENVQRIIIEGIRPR = 2
